- targetOfAssay: Brainiac β1-3-N-acetylglucosaminyltransferase (Drosophila melanogaster)
- Construct: The full coding region of Brainiac was prepared by PCR using genomic DNA; made in house; host or cells: High Five insect cells (baculovirus vector pVL1393); microsomal fractions
- Sequence (Q24157 1-325): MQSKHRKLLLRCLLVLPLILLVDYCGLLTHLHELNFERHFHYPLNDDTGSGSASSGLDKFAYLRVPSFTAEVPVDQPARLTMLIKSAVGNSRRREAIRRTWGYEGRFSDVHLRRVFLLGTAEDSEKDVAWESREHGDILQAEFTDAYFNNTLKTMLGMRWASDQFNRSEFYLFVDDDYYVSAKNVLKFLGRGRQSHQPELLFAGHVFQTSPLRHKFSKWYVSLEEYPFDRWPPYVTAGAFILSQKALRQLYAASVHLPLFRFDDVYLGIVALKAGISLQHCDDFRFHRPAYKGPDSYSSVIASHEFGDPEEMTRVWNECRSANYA
- methodNotes: Substrate specificities of Brainiac β1-3-N-acetylglucosaminyltransferase (acceptor panel, microsomal preparations)
- Format: biochemical
- conditionNotes: substrate 20 mM; microsomes of pVL-Brainiac infected High Five cells; background of irrelevant construct subtracted; donor UDP-GlcNAc
Measured Brainiac activity with substrate, listed per entry for reference.
measuredParameter: Brainiac activity with substrate (nmol/h/mg)

> print(dat)
                                   compound                 measuredparameter  value
1  CO[C@@H]1O[C@H](CO)[C@@H](O)[C@H](O)[C@@H]1O  Brainiac activity with substrate   2.74
2  OC[C@H]1O[C@@H](O[C@H]2[C@H](O)[C@@H](O)[C@H](OCc3ccccc3)O[C@@H]2CO)[C@H](O)[C@@H](O)[C@H]1O  Brainiac activity with substrate   1.69
3  OC[C@H]1OC(O)[C@H](O)[C@@H](O)[C@H]1O (stereo partly shown)  Brainiac activity with substrate   0.00
4  CO[C@H]1O[C@H](CO[C@H]2O[C@H](CO)[C@@H](O)[C@H](O)[C@@H]2O)[C@@H](O)[C@H](O)[C@@H]1O  Brainiac activity with substrate   0.05

###

- targetOfAssay: Brainiac β1-3-N-acetylglucosaminyltransferase (Drosophila melanogaster, UniProt Q24157)
- Construct: The full coding region of Brainiac was prepared by PCR using genomic DNA; made in house; host or cells: High Five insect cells (baculovirus vector pVL1393); microsomal fractions
- methodNotes: Substrate specificities of Brainiac β1-3-N-acetylglucosaminyltransferase (acceptor panel, microsomal preparations)
- Assay type: biochemical
- conditionNotes: substrate 20 mM; microsomes of pVL-Brainiac infected High Five cells; background of irrelevant construct subtracted; donor UDP-GlcNAc
measuredParameter: Brainiac activity with substrate (nmol/h/mg)

> print(dat)
                                   compound  value
1  O=[N+]([O-])c1ccccc1O[C@@H]1O[C@H](CO)[C@H](O)[C@H](O)[C@H]1O   0.02
2  C[C@@H]1O[C@@H](Oc2ccc([N+](=O)[O-])cc2)[C@@H](O)[C@H](O)[C@@H]1O   0.03
3  CC(=O)N[C@H]1[C@H](OCc2ccccc2)O[C@H](CO)[C@@H](O[C@@H]2O[C@H](CO)[C@H](O)[C@H](O)[C@H]2O)[C@@H]1O   0.02
4  OC[C@H]1O[C@@H](O[C@H]2[C@H](O)[C@@H](O)C(O)O[C@@H]2CO)[C@H](O)[C@@H](O)[C@H]1O (stereo partly shown)   3.08

###

- targetOfAssay: Brainiac β1-3-N-acetylglucosaminyltransferase (Drosophila melanogaster)
- Construct: The full coding region of Brainiac was prepared by PCR using genomic DNA; made in house; host or cells: High Five insect cells (baculovirus vector pVL1393); microsomal fractions
- methodNotes: Substrate specificities of Brainiac β1-3-N-acetylglucosaminyltransferase (acceptor panel, microsomal preparations)
- Type: biochemical
- conditionNotes: substrate 2 mM; microsomes of pVL-Brainiac infected High Five cells; background of irrelevant construct subtracted; donor UDP-GlcNAc
Returns: string. Value is yes (1) if measured Brainiac activity with substrate is below 0.02 nmol/h/mg, and no (0) if it is greater than or equal to it.

molecule	classAssignment
C[C@@H]1OC(O)[C@@H](O)[C@H](O)[C@@H]1O (stereo partly drawn)	yes (1)
OC[C@H]1O[C@H](OC[C@H]2O[C@H](OCc3ccccc3)[C@@H](O)[C@@H](O[C@H]3O[C@H](CO)[C@@H](O)[C@H](O)[C@@H]3O)[C@@H]2O)[C@@H](O)[C@@H](O)[C@@H]1O	yes (1)
C[C@@H]1O[C@H](Oc2ccc([N+](=O)[O-])cc2)[C@@H](O)[C@H](O)[C@@H]1O	yes (1)
CC(=O)N[C@H]1[C@H](OCc2ccccc2)O[C@H](CO)[C@@H](O[C@@H]2O[C@H](CO)[C@H](O)[C@H](O)[C@H]2O)[C@@H]1O	no (0)
CC(=O)N[C@H]1[C@H](O[C@H]2[C@@H](O)[C@@H](CO)O[C@@H](O[C@H]3[C@H](O)[C@@H](O)C(O)O[C@@H]3CO)[C@@H]2O)O[C@H](CO)[C@@H](O[C@@H]2O[C@H](CO)[C@H](O)[C@H](O)[C@H]2O)[C@@H]1O (mixture of isomers)	no (0)
C[C@H]1OC(O)[C@H](O)[C@@H](O)[C@H]1O (stereo partly drawn)	yes (1)
Cc1cc(=O)oc2cc(O[C@H]3O[C@H](C)[C@H](O)[C@H](O)[C@H]3O)ccc12	yes (1)
OCC1OC(OCC2OC(OCC3OC(O)C(O)C(OC4OC(CO)C(O)C(O)C4O)C3O)C(O)C(OC3OC(CO)C(O)C(O)C3O)C2O)C(O)C(O)C1O (stereo not drawn)	no (0)
O=[N+]([O-])c1ccccc1O[C@@H]1O[C@H](CO)[C@H](O)[C@H](O)[C@H]1O	no (0)
CO[C@H]1O[C@H](CO)[C@@H](O)[C@H](O[C@H]2O[C@H](CO)[C@@H](O)[C@H](O)[C@@H]2O)[C@@H]1O	yes (1)

###

- targetOfAssay: Brainiac β1-3-N-acetylglucosaminyltransferase (Drosophila melanogaster)
- Construct: The full coding region of Brainiac was prepared by PCR using genomic DNA; made in house; host or cells: High Five insect cells (baculovirus vector pVL1393); microsomal fractions
- methodNotes: Substrate specificities of Brainiac β1-3-N-acetylglucosaminyltransferase (acceptor panel, microsomal preparations)
- Format: biochemical
- conditionNotes: substrate 20 mM; microsomes of pVL-Brainiac infected High Five cells; background of irrelevant construct subtracted; donor UDP-GlcNAc
Measured Brainiac activity with substrate, listed per entry for reference.
measuredParameter: Brainiac activity with substrate (nmol/h/mg)

> print(dat)
                                    compound  value
 1  OCC1OC(OCC2OC(OCC3OC(O)C(O)C(OC4OC(CO)C(O)C(O)C4O)C3O)C(O)C(OC3OC(CO)C(O)C(O)C3O)C2O)C(O)C(O)C1O (stereo not drawn)   0.45
 2  Cc1cc(=O)oc2cc(O[C@@H]3O[C@@H](C)[C@@H](O)[C@@H](O)[C@@H]3O)ccc12   0.00
 3  C[C@@H]1OC(O)[C@@H](O)[C@H](O)[C@@H]1O (stereo partly drawn)   0.05
 4  CC(=O)N[C@@H]1C(O)O[C@H](CO)[C@@H](O[C@@H]2O[C@H](CO)[C@H](O)[C@H](O)[C@H]2O)[C@@H]1O (stereo partly drawn)   0.42
 5  Cc1cc(=O)oc2cc(O[C@@H]3O[C@H](CO)[C@H](O)[C@H](O)[C@H]3O)ccc12   0.00
 6  OC[C@H]1OC(O)[C@@H](O)[C@@H](O)[C@@H]1O (stereo partly drawn)   1.70
 7  COC1OC(CO)C(O)C(O)C1O (stereo not drawn)   0.61
 8  C[C@@H]1OC(N)[C@@H](O)[C@H](O)[C@@H]1O (stereo partly drawn)   0.60
 9  C[C@@H]1O[C@H](Oc2ccc([N+](=O)[O-])cc2)[C@@H](O)[C@H](O)[C@@H]1O   0.02
10  Cc1cc(=O)oc2cc(O[C@H]3O[C@H](C)[C@H](O)[C@H](O)[C@H]3O)ccc12   0.00
11  CO[C@H]1O[C@H](CO)[C@@H](O[C@H]2O[C@H](CO)[C@@H](O)[C@H](O)[C@@H]2O)[C@H](O)[C@@H]1O   0.00
12  Cc1cc(=O)oc2cc(O[C@@H]3O[C@H](CO)[C@@H](O)[C@H](O)[C@@H]3O)ccc12   6.18
13  CO[C@H]1O[C@H](CO)[C@@H](O)[C@H](O[C@H]2O[C@H](CO)[C@@H](O)[C@H](O)[C@@H]2O)[C@@H]1O   0.00
14  Cc1cc(=O)oc2cc(O[C@H]3O[C@H](CO)[C@@H](O)[C@H](O)[C@@H]3O)ccc12   0.17
15  OC[C@H]1O[C@@H](O[C@@H]2[C@H](O)[C@@H](O)C(O)O[C@@H]2CO)[C@H](O)[C@@H](O)[C@H]1O (stereo partly drawn)   0.00

Recorded values, source patent US20030153056A1.
